# assayed-system: K3
# measurement-description: SPR
reported-property: Kd (µM)
Hi! Could you send only the number? It should be in µM, unit omitted.

input: Hello, please tell me recorded Kd for this one: mouse C5a protein (ligand) NLHLLRQKIEEQAAKYKHSVPKKCCYDGARVNFYETCEERVARVTIGPLCIRAFNECCTIANKIRKESPHKPVQLGR
output: 7.12
